Tested on: Rattus norvegicus
Assay: Analgesic activity was determined in rat using 4% sodium chloride-induced abdominal constriction assay at a duration of 30 min following a 1 mg/kg intraperitoneal dose
Type: functional
Conditions: Abdomen, ip, 0.5 h
# inhibition in vivo at 1 mg/kg annotations
Expressed in %, but write only the number.

# example entries with known answers
{"columns": ["compound", "reported.property", "measurement.units", "recorded.value"],
 "data": [
  ["CC(C)c1cc(-c2ccccc2)c(-c2ccc(S(C)(=O)=O)cc2)c(=O)o1", "inhibition in vivo at 1 mg/kg", "%", 67.8],
  ["Cc1ccc(-c2cc(C(F)(F)F)nn2-c2ccc(S(N)(=O)=O)cc2)cc1 [CELECOXIB]", "inhibition in vivo at 1 mg/kg", "%", 31.7],
  ["COc1cc(-c2ccccc2)c(-c2ccc(S(C)(=O)=O)cc2)c(=O)o1", "inhibition in vivo at 1 mg/kg", "%", 55.2],
  ["CC(C)c1cc(-c2ccc(F)cc2)c(-c2ccc(S(C)(=O)=O)cc2)c(=O)o1", "inhibition in vivo at 1 mg/kg", "%", 50.9],
  ["CCOc1cc(-c2ccc(F)cc2)c(-c2ccc(S(C)(=O)=O)cc2)c(=O)o1", "inhibition in vivo at 1 mg/kg", "%", 42.8],
  ["Cc1cc(-c2ccccc2)c(-c2ccc(S(C)(=O)=O)cc2)c(=O)o1", "inhibition in vivo at 1 mg/kg", "%", 57],
  ["CCSc1cc(-c2ccccc2)c(-c2ccc(S(C)(=O)=O)cc2)c(=O)o1", "inhibition in vivo at 1 mg/kg", "%", 81],
  ["CC(C)(C)Oc1cc(-c2ccccc2)c(-c2ccc(S(C)(=O)=O)cc2)c(=O)o1", "inhibition in vivo at 1 mg/kg", "%", 73.8],
  ["COc1cc(-c2ccc(F)cc2)c(-c2ccc(S(C)(=O)=O)cc2)c(=O)o1", "inhibition in vivo at 1 mg/kg", "%", 49]
]}

Now for a further compound.
Challenge: So what does the record say about inhibition in vivo at 1 mg/kg for CCSc1cc(-c2ccc(F)cc2)c(-c2ccc(S(C)(=O)=O)cc2)c(=O)o1 ?
Response given: 54.3
